# MEASUREMENT_TARGET: CARD14, Q9BXL6
# Sequence (Q9BXL6 558-663): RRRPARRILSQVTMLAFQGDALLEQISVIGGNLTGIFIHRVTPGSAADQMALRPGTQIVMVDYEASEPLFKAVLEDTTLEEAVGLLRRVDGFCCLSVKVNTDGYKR
# ASSAY_REMARKS: holdup assay
# Parameters: key: below the threshold = too weak to quantify, mostly under pKd 3.1 to 4
# CONDITION_SUMMARY: plain residues with an end cap or a label only (N-terminal biotin on a linker: ttds)
METRIC: pKd

- BINDER: "RSLEEEESQL [GRASP, Q7Z6J2]"
  RESULT: "below the threshold"
- BINDER: "STLTIFETAL [ABCC4, O15439]"
  RESULT: "below the threshold"
- BINDER: "QSARYRDTEL [TJP2, Q9UDY2]"
  RESULT: "below the threshold"
